src = patent US8106071B2

System: NCI-H460 (lung cancer cell line)
experiment_summary: Cytotoxicity to tumor cells (WST-1), NCI-H460
Format: cell-based
assay_setup: Homo sapiens, NCI-H460, 48-hr treatment
pIC50: −log10 of the molar value.
value_kind: pIC50

given_smiles	recorded_result
O=C(Nc1ccc(Cl)cc1Cl)c1c(Nc2ccccc2)[nH]c2c(Cl)cc(Cl)cc2c1=O	6.00
O=C(Nc1ccc(Cl)cc1Cl)c1c(Nc2ccc(Cl)cc2Cl)[nH]c2c(Cl)cc(Cl)cc2c1=O	6.68
